molecular target: Transient receptor potential cation channel subfamily V member 1 (Homo sapiens, UniProt Q8NER1); experiment: Functional antagonistic activity against human vanilloid receptor subtype 1 in HEK293 cell […] as inhibition of agonist-induced increases in intracellular [Ca2+] levels; type: cell-based
Sequence (Q8NER1 whole entry): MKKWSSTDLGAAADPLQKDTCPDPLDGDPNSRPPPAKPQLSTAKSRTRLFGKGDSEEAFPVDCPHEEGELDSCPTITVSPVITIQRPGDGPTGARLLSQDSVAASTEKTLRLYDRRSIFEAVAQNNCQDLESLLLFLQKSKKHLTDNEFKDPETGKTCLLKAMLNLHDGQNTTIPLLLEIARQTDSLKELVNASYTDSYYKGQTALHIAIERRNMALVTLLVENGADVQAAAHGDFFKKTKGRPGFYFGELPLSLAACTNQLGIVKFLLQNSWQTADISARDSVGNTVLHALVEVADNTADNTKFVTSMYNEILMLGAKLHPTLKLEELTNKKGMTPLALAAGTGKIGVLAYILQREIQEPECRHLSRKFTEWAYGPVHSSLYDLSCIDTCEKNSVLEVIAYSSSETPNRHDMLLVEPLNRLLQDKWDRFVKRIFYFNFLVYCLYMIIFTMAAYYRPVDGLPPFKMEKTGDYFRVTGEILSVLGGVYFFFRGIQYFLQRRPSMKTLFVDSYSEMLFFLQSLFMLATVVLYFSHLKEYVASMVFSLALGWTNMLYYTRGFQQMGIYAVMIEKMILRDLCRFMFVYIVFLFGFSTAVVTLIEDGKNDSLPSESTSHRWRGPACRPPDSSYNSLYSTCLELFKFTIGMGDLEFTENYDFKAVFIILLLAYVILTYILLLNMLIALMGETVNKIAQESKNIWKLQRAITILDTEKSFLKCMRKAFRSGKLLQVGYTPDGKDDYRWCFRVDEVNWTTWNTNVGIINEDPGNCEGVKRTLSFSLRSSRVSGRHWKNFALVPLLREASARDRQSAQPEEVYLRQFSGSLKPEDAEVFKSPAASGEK
PROPERTY_MEASURED: IC50 (µM)

MOLECULE	UNIT_ANNOTATION	IC50
O=C(NCc1ccc(OC(F)(F)F)cc1)Nc1cccc2ccc(O)cc12	µM	0.027
O=C(NCc1ccc(C(F)(F)F)cc1)Nc1cccc2ccc(O)cc12	µM	0.004
O=C(NCc1ccc(Cl)c(Cl)c1)Nc1cccc2ccc(O)cc12	µM	0.015
O=C(Nc1cccc2ccc(O)cc12)Oc1ccccc1	µM	6.3
O=C(Cc1ccc(Cl)c(Cl)c1)Nc1cccc2ccc(O)cc12	µM	0.77

(1) Oc1cc2c(cc1O)CN(C(=S)NCCc1ccc(Cl)cc1)CCC2 [CAPSAZEPINE]
(2) O=C(NCc1cccc(C(F)(F)F)c1)Nc1cccc2ccc(O)cc12
(3) O=C(Nc1cccc2ccc(O)cc12)c1ccc(Cl)cc1
(4) O=C(CCc1ccc(Cl)c(Cl)c1)Nc1cccc2ccc(O)cc12
Data request: Order by IC50, ascending. Answer by naming the labels in the order asked.
Data returned: 4, 2, 1, 3
(4: 0.017 µM, 2: 0.026 µM, 1: 0.1 µM, 3: 0.32 µM)

(A) O=C(NCCc1ccc(Cl)c(Cl)c1)Nc1cccc2ccc(O)cc12
(B) O=C(NCc1ccccc1)Nc1cccc2ccc(O)cc12
Data request: Hello, I am sorting some records. Could you say if A or B has the smaller IC50 value? Could you answer with the label of the item you picked?
Data returned: B
(B: 0.045 µM, A: 0.09 µM)
